Molecular target: hT1R1/hT1R3 umami receptor (Homo sapiens, UniProt Q7RTX0+Q7RTX1)
Construct: expressed in transfected cells; host or cells: HEK293 derivative stably expressing Gα15, clone I-17, expression induced with mifepristone
Experiment: Umami taste enhancement activity assay (EC50 ratio vs. MSG)
Type: cell-based
Conditions: compound present at 0.3 μM
endpoint: EC50 ratio (enhanced the effectiveness of monosodium glutamate)

Recorded results for 3 compounds are shown here.
- compound: "CCCC(CCC)NC(=O)/C=C/c1ccc(OC)c(OC)c1"
  measurement: 2.4
- compound: "CCCC(CCC)NC(=O)Nc1ccc(OC)cc1OC"
  measurement: 7.61
- compound: "COc1ccc(CNC(=O)C(=O)NCCc2ccccn2)c(OC)c1"
  measurement: 6.51

[P] O=C(NC1CCCc2ccccc21)c1ccc2c(c1)OCO2 (centres unmarked)
[Q] CCCC(CCC)NC(=O)c1cc2ccccc2o1
Input pair: P , Q . Output: entry with lower EC50 ratio (enhanced the effectiveness of monosodium glutamate). Return value: the label identifying the chosen record.
Q

###

Target: hT1R1/hT1R3 umami receptor (Homo sapiens, UniProt Q7RTX0+Q7RTX1)
Construct: expressed in transfected cells; host or cells: HEK293 derivative stably expressing Gα15, clone I-17, expression induced with mifepristone
Sequence (Q7RTX1 21-841): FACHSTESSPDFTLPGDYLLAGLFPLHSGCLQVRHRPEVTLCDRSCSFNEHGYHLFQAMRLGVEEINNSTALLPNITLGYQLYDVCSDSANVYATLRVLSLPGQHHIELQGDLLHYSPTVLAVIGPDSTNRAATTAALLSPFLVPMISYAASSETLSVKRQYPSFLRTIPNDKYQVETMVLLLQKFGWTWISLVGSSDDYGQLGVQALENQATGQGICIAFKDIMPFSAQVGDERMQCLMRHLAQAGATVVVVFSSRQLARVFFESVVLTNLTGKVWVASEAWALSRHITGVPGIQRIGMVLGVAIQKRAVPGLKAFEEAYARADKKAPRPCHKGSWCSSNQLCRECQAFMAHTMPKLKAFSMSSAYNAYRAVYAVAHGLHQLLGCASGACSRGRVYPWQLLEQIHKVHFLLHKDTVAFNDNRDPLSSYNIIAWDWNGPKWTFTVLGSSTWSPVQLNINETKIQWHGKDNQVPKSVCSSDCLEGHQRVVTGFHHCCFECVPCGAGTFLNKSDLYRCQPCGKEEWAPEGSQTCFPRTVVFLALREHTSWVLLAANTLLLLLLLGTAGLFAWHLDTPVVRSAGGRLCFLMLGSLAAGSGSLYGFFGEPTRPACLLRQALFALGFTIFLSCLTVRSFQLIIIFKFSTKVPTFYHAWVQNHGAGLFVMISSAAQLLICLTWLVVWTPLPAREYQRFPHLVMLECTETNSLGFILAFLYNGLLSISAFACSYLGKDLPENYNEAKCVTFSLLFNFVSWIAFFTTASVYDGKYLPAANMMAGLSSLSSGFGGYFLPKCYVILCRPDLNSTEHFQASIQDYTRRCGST
Sequence (Q7RTX0 21-852): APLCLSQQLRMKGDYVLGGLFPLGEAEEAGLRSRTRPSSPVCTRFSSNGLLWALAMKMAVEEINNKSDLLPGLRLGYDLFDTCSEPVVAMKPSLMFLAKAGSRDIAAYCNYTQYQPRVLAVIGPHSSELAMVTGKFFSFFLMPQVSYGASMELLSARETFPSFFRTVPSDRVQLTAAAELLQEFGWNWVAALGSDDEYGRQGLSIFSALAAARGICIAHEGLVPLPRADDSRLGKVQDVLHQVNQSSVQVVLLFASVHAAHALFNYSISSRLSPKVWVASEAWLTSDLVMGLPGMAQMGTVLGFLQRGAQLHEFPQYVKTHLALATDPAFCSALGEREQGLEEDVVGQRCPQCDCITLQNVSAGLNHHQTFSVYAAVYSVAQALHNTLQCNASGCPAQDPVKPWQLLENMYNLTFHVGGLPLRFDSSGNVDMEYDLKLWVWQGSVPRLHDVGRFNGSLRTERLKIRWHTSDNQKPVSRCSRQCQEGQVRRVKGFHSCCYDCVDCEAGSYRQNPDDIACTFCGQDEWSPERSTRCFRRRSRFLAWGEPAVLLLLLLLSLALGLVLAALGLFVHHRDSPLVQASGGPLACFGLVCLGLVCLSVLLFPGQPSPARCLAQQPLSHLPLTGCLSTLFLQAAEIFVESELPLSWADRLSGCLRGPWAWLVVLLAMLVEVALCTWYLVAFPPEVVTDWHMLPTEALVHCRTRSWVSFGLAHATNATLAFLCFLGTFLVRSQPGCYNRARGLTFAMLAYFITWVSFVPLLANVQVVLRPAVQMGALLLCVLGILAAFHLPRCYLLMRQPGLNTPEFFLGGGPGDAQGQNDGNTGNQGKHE
Test: Umami taste enhancement activity assay (EC50 ratio vs. MSG)
Assay type: cell-based
Conditions: compound present at 3 μM
endpoint: EC50 ratio (enhanced the effectiveness of monosodium glutamate)

Recorded results for 5 compounds are shown here.
- compound: "CCCC(CCC)NC(=O)c1ccc2c(c1)OC(CC(=O)OCC)O2 (centres unmarked) [Example 19]"
  measurement: 2.5
- compound: "COc1ccc(CNC(=O)c2ccnn2C)c(OC)c1 [Example 110]"
  measurement: 7.9
- compound: "CCCC(CCC)NC(=O)c1ccc2c(c1)OC(C(C)C)O2 (centres unmarked) [Example 21]"
  measurement: 2.2
- compound: "COc1ccc(CNC(=O)c2sccc2C)c(OC)c1 [Example 108]"
  measurement: 5.8
- compound: "O=C(NCc1ccc(OC(F)(F)F)cc1)c1ccsc1 [Example 107]"
  measurement: 8.5

[a] CC(C)C[C@H](CO)NC(=O)c1ccc2c(c1)OCO2 [Example 8]
[b] COc1ccc(CNC(=O)c2ccc(-c3ccccn3)s2)c(OC)c1 [Example 109]
[c] CCCC(COC(C)=O)NC(=O)c1ccc2c(c1)OCO2 (centres unmarked) [Example 14]
Sort the 3 compounds by EC50 ratio (enhanced the effectiveness of monosodium glutamate); largest first, smallest last. // respond by listing labels in the order requested
b, c, a
